Values compiled from patent US8501794B2.

target: rat CB2 (Rattus norvegicus, UniProt Q9QZN9); assay: rat CB2 radioligand binding assay ([3H]CP-55,940 competition); set-up: expressed in transfected cells; host or cells: HEK293
QUANTITY: pKi
pKi is defined as minus the log10 of a concentration measured in mol/L.

Example entries begin here.
{"MOLECULE SMILES": "CCCCc1cn(C(C)(C)C)s/c1=N\\C(=O)c1cc(C#N)ccc1OCC(F)(F)F", "MEASURED RESULT": 8.55}
{"MOLECULE SMILES": "CCCCc1cn(C(C)(C)C)s/c1=N\\C(=NC#N)c1cc(C(F)(F)F)ccc1OC", "MEASURED RESULT": 8.64}
{"MOLECULE SMILES": "COc1ccc(Cl)cc1C(=O)/N=c1\\sn(C(C)(C)C)cc1Cc1ccccc1", "MEASURED RESULT": 8.96}
{"MOLECULE SMILES": "CCOCc1cn(C(C)(C)C)s/c1=N\\C(=O)c1cc(Cl)ccc1OC", "MEASURED RESULT": 7.89}
{"MOLECULE SMILES": "CC/C=C\\c1cn(C(C)(C)C)s/c1=N\\C(=O)c1cc(Cl)ccc1OC", "MEASURED RESULT": 8.80}
{"MOLECULE SMILES": "CCCCc1cn(C(C)(C)C)s/c1=N\\C(=O)c1cc(C(C)=O)ccc1OC", "MEASURED RESULT": 9.20}

With rat CB2 (Rattus norvegicus, UniProt Q9QZN9) as the test system, `COc1ccc(C(F)(F)F)cc1C(=O)/N=c1\sn(C(C)(C)C)cc1CC(C)C` showed pKi of 8.74

Kindly note: rat CB2 (Rattus norvegicus, UniProt Q9QZN9), `CCCCc1cn(C(C)(C)C)s/c1=N\C(=O)[C@]1(C)CC[C@H](NC(=O)N2CC(F)(F)C2)C1(C)C` , pKi value reported: 7.36

###

biological target: human CB2 receptors (Homo sapiens); construct: expressed in transfected cells; host or cells: HEK293; assay: human CB2 radioligand binding assay ([3H]CP-55,940 competition); conditions: HEK293 membranes, 0.5 nM [3H]CP-55,940; read-out: human CB2 (Ki)
// reported pKi for each item listed
When answering, recall that pKi equals minus log10 of the concentration in mol/L, and write that number alone.

{"COMPOUND": "CCCCc1cn(C(C)(C)C)s/c1=N\\C(=O)[C@@H]1CC[C@](C)(C(=O)NCCC)C1(C)C", "pKi": 6.57}
{"COMPOUND": "CCCCc1cn(C(C)(C)C)s/c1=N\\C(=O)c1cc(C(C)C)ccc1OC", "pKi": 6.80}
{"COMPOUND": "CCCCc1cn(C(C)(C)C)s/c1=N\\C(=O)[C@@]1(C)CC[C@@H](C(=O)NC2CCC2)C1(C)C", "pKi": 6.54}
{"COMPOUND": "CCCCc1cn(C(C)(C)C)s/c1=N\\C(=O)[C@H]1CC[C@@](C)(C(=O)N(C)C)C1(C)C", "pKi": 6.68}
{"COMPOUND": "CCCCc1cn(C(C)(C)C)s/c1=N\\C(=O)[C@]1(C)CC[C@H](C(=O)NCc2cccnc2)C1(C)C", "pKi": 6.49}

The value of pKi recorded for `COc1ccc(Cl)cc1C(=O)/N=c1\sn(C(C)(C)C)cc1CCN1CCOCC1` when tested on human CB2 receptors (Homo sapiens) reads 6.64

CCC1CC1c1cn(C(C)(C)C)s/c1=N\C(=O)c1cc(Cl)ccc1OC (centres unmarked) on human CB2 receptors (Homo sapiens) gives pKi = 6.62

Field pKi (system: human CB2 receptors (Homo sapiens)) for entry `CCCCc1cn(C(C)(C)C)s/c1=N\C(=O)c1cc(C(F)(F)F)ccc1OC[C@@H]1CCC(=O)N1` = 6.77

Let me check: `CCCCc1cn(C(C)(C)C)s/c1=N\C(=O)[C@]1(C)CC[C@H](C(=O)N2CC(O)C2)C1(C)C` , system human CB2 receptors (Homo sapiens), measured pKi is 6.59

`CCCCc1cn(C(C)(C)C)s/c1=N\C(=O)c1cc(C=NOC)ccc1OC` tested on human CB2 receptors (Homo sapiens) gave pKi: 6.72

###

Overview of recorded log10 EC50 for various molecules
target: rat CB2 (Rattus norvegicus, UniProt Q9QZN9); experiment: rat CB2 cyclase functional assay (HitHunter cAMP, HEK cells); conditions: forskolin 18 μM
In our notation, the value equals log10 of EC50 in nM.

Take a look at these entries with their results.
{"MOLECULE": "CCCCc1cn(C(C)(C)C)s/c1=N\\C(=O)c1cc(C=NO)ccc1OC [Example 59]", "QUANTITY": "log10 EC50", "MEASURED RESULT": -0.92}
{"MOLECULE": "CCCCc1cn(C(C)(C)C)s/c1=N\\C(=O)c1cc(Cl)ccc1OCC(N)=O [Example 140]", "QUANTITY": "log10 EC50", "MEASURED RESULT": -0.82}

Given item COc1ccc(Cl)cc1C(=O)/N=c1\sn(C(C)(C)C)cc1CC1CCCO1 (stereo not shown) [Example 67] , the value recorded as its log10 EC50 is 0.57

For this molecule ( CCCCc1cn(C(C)(C)C)s/c1=N\C(=O)[C@]1(C)CC[C@H](NC(N)=O)C1(C)C [Example 245] ), measured log10 EC50 is 0.98

###

target: human CB2 receptors (Homo sapiens); construct: expressed in transfected cells; host or cells: HEK293; assay: human CB2 radioligand binding assay ([3H]CP-55,940 competition)
Ki less than 0.03 µM is Satisfied; Ki greater than or equal to 0.03 µM is Not satisfied.

{"MOLECULE": "CCCCc1cn(C(C)(C)C)s/c1=N\\C(=O)C1(C)CCC(C(=O)NC)C1(C)C (centres unmarked) [Example 100]", "LABEL": "Satisfied"}
{"MOLECULE": "COc1ccc(Cl)cc1C(=O)/N=c1\\sn(C(C)(C)C)cc1CCCC(C)=O [Example 75]", "LABEL": "Not satisfied"}
{"MOLECULE": "CCCCc1cn(C(C)(C)C)s/c1=N\\C(=O)OCC(C)(C)C [Example 187]", "LABEL": "Not satisfied"}

Query molecule follows.
Does the reported Ki of the following molecule sit strictly below 0.03 µM? COc1ccc(C(F)(F)F)cc1C(=O)/N=c1\sn(C(C)(C)C)cc1CCCCF [Example 149]
Satisfied

###

The following molecules are shown together with reported EC50 values.
Molecular target: rat CB2 (Rattus norvegicus)
Sequence (Q9QZN9 1-360): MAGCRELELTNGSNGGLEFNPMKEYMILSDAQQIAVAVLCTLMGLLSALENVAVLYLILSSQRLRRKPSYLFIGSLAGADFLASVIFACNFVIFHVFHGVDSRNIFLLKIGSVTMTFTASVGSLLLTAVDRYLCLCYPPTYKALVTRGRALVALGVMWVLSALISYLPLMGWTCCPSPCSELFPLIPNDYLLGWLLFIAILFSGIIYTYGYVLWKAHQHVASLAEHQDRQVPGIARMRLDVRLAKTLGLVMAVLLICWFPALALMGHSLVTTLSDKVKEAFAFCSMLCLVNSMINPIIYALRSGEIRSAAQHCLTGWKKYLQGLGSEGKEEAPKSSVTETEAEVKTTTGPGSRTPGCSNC
Experiment: rat CB2 cyclase functional assay (HitHunter cAMP, HEK cells)
Details: forskolin 18 μM
Dear colleague, please send the value followed by its unit.

{"MOLECULE": "COc1ccc(Cl)cc1C(=O)/N=c1\\sn(C(C)(C)C)cc1Cc1cscn1", "MEASURED RESULT": "0.15 nM"}
{"MOLECULE": "COc1ccc(Cl)cc1C(=O)/N=c1\\sn(C(C)(C)C)cc1CC1CCCC1", "MEASURED RESULT": "0.051 nM"}
{"MOLECULE": "CCCCc1cn(C(C)(C)C)s/c1=N\\C(=O)C1(C)CCC(C(=O)O)C1(C)C (centres unmarked)", "MEASURED RESULT": "1.4 nM"}
{"MOLECULE": "CCOCc1cn(C(C)(C)C)s/c1=N\\C(=O)c1cc(Cl)ccc1OC", "MEASURED RESULT": "0.41 nM"}

Lab note: measured EC50 of `CCCCc1cn(C(C)(C)C)s/c1=N\S(=O)(=O)c1cccc(Cl)c1Cl` was 1.9 nM

###

This section presents compounds with their documented Ki values.
target: human CB2 receptors (Homo sapiens, UniProt P34972); construct: expressed in transfected cells; host or cells: HEK293; test: human CB2 radioligand binding assay ([3H]CP-55,940 competition)
Sequence (P34972 whole entry): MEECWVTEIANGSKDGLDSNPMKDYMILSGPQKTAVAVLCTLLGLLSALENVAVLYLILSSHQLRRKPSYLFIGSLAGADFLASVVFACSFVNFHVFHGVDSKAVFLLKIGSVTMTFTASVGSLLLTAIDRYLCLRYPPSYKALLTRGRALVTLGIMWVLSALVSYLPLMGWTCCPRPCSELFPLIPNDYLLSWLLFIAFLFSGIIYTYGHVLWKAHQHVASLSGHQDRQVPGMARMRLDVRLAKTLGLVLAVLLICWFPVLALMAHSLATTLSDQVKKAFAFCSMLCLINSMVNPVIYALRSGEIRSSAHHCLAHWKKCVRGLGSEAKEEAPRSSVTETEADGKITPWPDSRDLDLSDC
Write down the numeric answer in nM and omit the unit.

{"COMPOUND": "COc1ccc(Cl)cc1C(=O)/N=c1\\sn(C(C)(C)C)cc1CCC(C)O (centres unmarked) [Example 18]", "Ki, nM": 86}
{"COMPOUND": "CCCCc1cn(C(C)(C)C)s/c1=N\\C(=O)[C@H]1CC[C@@](C)(C(=O)NC)C1(C)C [Example 182]", "Ki, nM": 350}

Tested system human CB2 receptors (Homo sapiens, UniProt P34972); Ki recorded for COc1ccc(Cl)cc1C(=O)/N=c1\sn(C(C)(C)C)cc1CCCC#N [Example 30] was 17

Note to self: Ki of CCCCc1cn(C(C)(C)C)s/c1=N\C(=O)c1cc(C(C)=O)ccc1OC [Example 64] with human CB2 receptors (Homo sapiens, UniProt P34972) was 14

Tested on human CB2 receptors (Homo sapiens, UniProt P34972): CCCCc1cn(C(C)(C)C)s/c1=N\C(=O)C1=CC(=O)CC(C)(C)O1 [Example 125] . Observed Ki: 31

Noted Ki for COc1ccc(Cl)cc1C(=O)/N=c1\sn(C(C)(C)C)cc1C(O)c1cccs1 (centres unmarked) [Example 44] , tested on human CB2 receptors (Homo sapiens, UniProt P34972): 27

The compound CCCCc1cn(C(C)(C)C)s/c1=N\C(=O)c1cc(C(F)(F)F)ccc1OCC1CCCCN1C (centres unmarked) [Example 196] , tested on human CB2 receptors (Homo sapiens, UniProt P34972), showed Ki of 18

Item: CCCCc1cn(C(C)(C)C)s/c1=N\C(=NC#N)c1cc(C(F)(F)F)ccc1OCC [Example 126] | System: human CB2 receptors (Homo sapiens, UniProt P34972) | Ki: 0.6

Entry COc1ccc(Cl)cc1C(=O)/N=c1\sn(C(C)(C)C)cc1C1CCOCC1 [Example 39] under human CB2 receptors (Homo sapiens, UniProt P34972) had Ki of 99

Response field Ki (human CB2 receptors (Homo sapiens, UniProt P34972)) for item COc1ccc(Cl)cc1C(=O)/N=c1\sn(C(C)(C)C)cc1CCC(C)(C)F [Example 87] : 12

The reported Ki value, human CB2 receptors (Homo sapiens, UniProt P34972), for CCCCc1cn(C(C)(C)C)s/c1=N\C(=O)c1cc(C(=O)OC)ccc1OC [Example 74] reads 27

Sample CCCCc1c(C)n(C)s/c1=N\C(=O)C12CC3CC(CC1C3)C2 [Example 4] , system: human CB2 receptors (Homo sapiens, UniProt P34972). Its Ki is 3.8

Noted Ki for CCCCc1cn(C(C)(C)C)s/c1=N\C(=O)[C@]1(C)CC[C@H](C(=O)N2CCC2)C1(C)C [Example 178] , tested on human CB2 receptors (Homo sapiens, UniProt P34972): 170

Record CCCCc1cn(C(C)(C)CF)s/c1=N\C(=O)c1cc(C(F)(F)F)ccc1OC [Example 152] ; system human CB2 receptors (Homo sapiens, UniProt P34972); Ki = 5.1

Record COc1ccc(Cl)cc1C(=O)/N=c1\sn(C(C)(C)C)cc1C(O)c1ccccc1 (centres unmarked) [Example 31] has human CB2 receptors (Homo sapiens, UniProt P34972) Ki equal to 63

Field Ki (system: human CB2 receptors (Homo sapiens, UniProt P34972)) for entry CC(C)(C)n1cc(Cc2ccco2)/c(=N/C(=O)c2cccc(C(F)(F)F)c2F)s1 [Example 70] = 34

Item CCCCc1cn(C(C)(C)C)s/c1=N\C(=NC#N)c1cc(C(F)(F)F)ccc1OC[C@@H]1CCCN1C [Example 193] was tested on human CB2 receptors (Homo sapiens, UniProt P34972); the reported Ki is 37
